The reported measurements were obtained from ChEMBL document CHEMBL1201862.

Below, each of the compounds is paired with its reported IC50 value.
target: Rac GTPase-activating protein 1 (Homo sapiens, UniProt Q9H0H5); test: blockers of MgcRacGAP-driven Rac1 GTP hydrolysis – biochemical, ADP Hunter fluorescence, primary and confirmatory, confirmation (AID 624330); assay type: functional
Sequence (Q9H0H5 whole entry): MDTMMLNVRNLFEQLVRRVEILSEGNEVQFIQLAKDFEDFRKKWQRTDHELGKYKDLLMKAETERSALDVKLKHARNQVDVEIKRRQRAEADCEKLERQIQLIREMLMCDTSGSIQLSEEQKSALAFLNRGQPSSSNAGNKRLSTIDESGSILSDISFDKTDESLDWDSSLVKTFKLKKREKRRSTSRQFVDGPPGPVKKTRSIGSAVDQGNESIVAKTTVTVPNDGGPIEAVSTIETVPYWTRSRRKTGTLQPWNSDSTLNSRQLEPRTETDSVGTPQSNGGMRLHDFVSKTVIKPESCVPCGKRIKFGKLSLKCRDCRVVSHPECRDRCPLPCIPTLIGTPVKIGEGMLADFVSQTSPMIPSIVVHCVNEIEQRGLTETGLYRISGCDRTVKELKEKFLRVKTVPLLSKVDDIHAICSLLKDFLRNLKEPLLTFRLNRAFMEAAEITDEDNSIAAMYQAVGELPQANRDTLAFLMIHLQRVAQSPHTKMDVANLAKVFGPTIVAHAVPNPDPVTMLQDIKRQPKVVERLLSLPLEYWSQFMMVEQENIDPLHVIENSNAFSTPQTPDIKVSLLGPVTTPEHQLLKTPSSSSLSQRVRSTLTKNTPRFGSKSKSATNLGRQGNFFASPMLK
The source made the active and inactive calls.
VALUE_TYPE: IC50

• Cc1ccc(C)c(OCCCCN2CCCCC2)c1 = 176 µM (active)
• COc1cccc2c1C(=O)c1c(O)c3c(c(O)c1C2=O)CC(O)(C(C)=NNC(=O)c1ccc(Cl)c(Cl)c1)CC3OC1CC(N)C(O)C(C)O1 (stereo unspecified) = 54.9 µM (active)
• CC1=CC(C)(C)N(C(=O)CNC2CCCC2)c2cc(C)ccc21 = 158 µM (active)
• CCCCn1c(C)cc2cc(O)ccc21 = 26.9 µM (active)
• CCOc1cc(/C=C2/N=C(C)C(C(=O)OC)=C2O)ccc1O = 26.3 µM (active)
• O=C(CNC(=O)c1ccncc1)N/N=C/c1ccc(O)cc1O = 75.5 µM (active)

###

molecular target: Heat shock factor protein 1 (Mus musculus, UniProt P38532); assay: decrease of HSF1-responsive luciferase luminescence – cell-based, NIH3T3, dose retest, confirmation (AID 2382); format: functional;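 note: NIH3T3 fibroblasts with HSF1-driven luciferase reporter stressed by proteasome inhibitor MG132; luminescence from HSF1-driven luciferase expression after 8 hours of MG132 stress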
Sequence (P38532 whole entry): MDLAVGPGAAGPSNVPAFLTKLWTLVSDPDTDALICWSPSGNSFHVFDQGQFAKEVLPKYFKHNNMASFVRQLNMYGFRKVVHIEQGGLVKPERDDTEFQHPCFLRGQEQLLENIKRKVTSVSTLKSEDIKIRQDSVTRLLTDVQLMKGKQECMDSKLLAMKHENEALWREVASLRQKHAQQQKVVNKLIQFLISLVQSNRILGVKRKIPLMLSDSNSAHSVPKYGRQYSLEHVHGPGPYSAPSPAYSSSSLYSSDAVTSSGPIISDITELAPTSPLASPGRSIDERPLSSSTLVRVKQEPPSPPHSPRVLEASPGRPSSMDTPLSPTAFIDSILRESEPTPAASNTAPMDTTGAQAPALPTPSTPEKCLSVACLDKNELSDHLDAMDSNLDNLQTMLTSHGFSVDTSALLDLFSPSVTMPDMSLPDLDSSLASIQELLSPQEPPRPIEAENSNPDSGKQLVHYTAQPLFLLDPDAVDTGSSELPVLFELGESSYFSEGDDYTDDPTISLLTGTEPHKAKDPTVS
Active and inactive are the calls of the source.
VALUE_TYPE: EC50

• CCOc1cc(N2CCOCC2)c(OCC)cc1NC(=O)c1cc(-c2ccco2)nc2ccccc12 = 1.21 µM (active)
• Cc1nn(C(C)(C)C)c(C)c1/C=N/OC(=O)Nc1ccc(Cl)c(Cl)c1 = < 0.16 µM (active)
• COc1ccc(C)cc1S(=O)(=O)Nc1cc2c3c(c1)CCC(=O)N3CCC2 = > 195 µM (not active)
• CCc1nc2sc3ccccc3c(=O)c2c(=O)n1Cc1ccc(OC)cc1 = > 195 µM (not active)
• Cc1ccc([N+](=O)[O-])c(OCCCN2CCC(Cc3ccccc3)CC2)c1 = > 195 µM (not active)
• C=CCOc1ccc(/C=C/C(=O)OCC(=O)NCC2CCCCC2)cc1 = > 195 µM (not active)
• Cc1cc(C(=O)CSc2nnc3ccccn23)c(C)n1-c1ccccc1 = < 0.16 µM (active)

###

target: Cytochrome P450 3A4 (Homo sapiens, UniProt P08684);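 note: CYP3A4 tested as one member of a cytochrome P450 panel screen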
Sequence (P08684 whole entry): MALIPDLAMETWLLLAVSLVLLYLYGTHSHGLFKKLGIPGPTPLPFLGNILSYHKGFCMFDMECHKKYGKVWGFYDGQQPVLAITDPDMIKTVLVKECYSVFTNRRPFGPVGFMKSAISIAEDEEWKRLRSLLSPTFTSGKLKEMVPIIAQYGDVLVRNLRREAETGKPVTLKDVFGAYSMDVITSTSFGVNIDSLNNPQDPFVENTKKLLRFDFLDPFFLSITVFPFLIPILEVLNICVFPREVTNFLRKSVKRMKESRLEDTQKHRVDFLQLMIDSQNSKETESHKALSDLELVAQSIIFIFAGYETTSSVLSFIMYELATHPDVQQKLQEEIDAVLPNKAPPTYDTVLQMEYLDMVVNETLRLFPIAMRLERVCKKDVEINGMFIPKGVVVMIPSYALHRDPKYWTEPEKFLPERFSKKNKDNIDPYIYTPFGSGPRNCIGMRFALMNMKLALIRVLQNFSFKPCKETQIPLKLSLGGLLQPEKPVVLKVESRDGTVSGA
VALUE_TYPE: AC50

• Nc1cc(Cl)ccc1Oc1ccccc1 = 22.4 µM (inconclusive)
• CC(=O)c1ccc(N2CCC(c3cc(-c4ccc(Cl)cc4)[nH]n3)CC2)c([N+](=O)[O-])c1 = 39.8 µM (inconclusive)
• CCc1cc2c(=O)c(-c3nc4ccccc4[nH]3)coc2cc1OC(=O)N1CCOCC1 = 5.01 µM (inconclusive)
• Cc1ccc(-c2ccc(=O)n(CC(=O)NCc3ccco3)n2)cc1 = 25.1 µM (inconclusive)
• O=C1[C@H]2[C@H]3[C@H](O)[C@H](O)C/C(=N/OC[C@@H](O)COCc4ccco4)[C@@H]3CC[C@@H]2C(=O)N1c1cccc(Oc2ccccc2)c1 = 7.94 µM (inconclusive)
• COC(=O)CN1C(=O)S/C(=C/c2ccc(N3CCCCC3)o2)C1=O = 15.8 µM (inconclusive)
• COc1ccc(C(=O)N2CCC3(CCCN(CC(C)C)C3)CC2)cc1 = 25.1 µM (inconclusive)
• COc1cc(C(=O)OCC(=O)Nc2cc(C)on2)cc(OC)c1OC = 15.8 µM (inconclusive)
• N[C@@H](COP(=O)(O)O)C(=O)O = 0.794 µM (inconclusive)
• CCOc1cc(/C=C2/C(=O)N(c3ccccc3)N=C2C)ccc1OC(=O)c1ccco1 = 25.1 µM (inconclusive)
• O=[N+]([O-])c1cc2c(cc1/C=N/c1ccccc1)OCO2 = 20 µM (inconclusive)
• CCN(C(=O)Cn1c(=O)oc2ccccc21)c1cccc(C(F)(F)F)c1 = 7.08 µM (inconclusive)
• CSCC[C@H](NC(=O)CC(C)(C)C)c1nc2ccccc2[nH]1 = 15.8 µM (inconclusive)
• CCc1cc2c(nc1CC)CCN(CC/C(C)=N/OC[C@@H](C)[C@H](OCc1ccccc1)C(C)C)C2 = 3.98 µM (inconclusive)
• CCOC(=O)CCCNC(=O)CCCNC(=O)C(c1ccccc1)c1ccccc1 = 8.91 µM (inconclusive)
• CCC(=O)OCc1c(C(F)(F)F)nn(C)c1Sc1ccc(F)cc1 = 25.1 µM (inconclusive)
• Cn1cccc1C(=O)N1CCC2(CCCN(C(=O)Nc3ccccc3)C2)CC1 = 31.6 µM (inconclusive)
